Taken from patent US9629822B2.

// reported cytotoxicity at 10 μM per item
Assay: TZMbI assay for cell safety (cell viability and growth, CytoTox Glo)
Settings: human, TZMbI cells, 10 μM, Experiment 1A; read-out: % decrease in viability compared to 0.1% DMSO vehicle based on viable cell luminescence
Output spec: scalar in %, unitless text.

Before answering, review these 5 worked examples.
1) COc1ccc(Br)cc1-c1cc(=O)c2ccccc2o1 [Compound 11d]: 23.6
2) COc1ccc(Br)cc1-c1cc(=O)c2c(OCc3ccccc3)cccc2o1 [Compound 11b]: 6.4
3) CCOc1ccc(Cl)cc1/C=C/C(=O)c1ccccc1O: 87.1
4) COc1ccc(C)cc1/C=C/C(=O)c1ccccc1O: 47
5) COc1ccc(C)cc1-c1oc2ccccc2c(=O)c1O: 4.8

Query compound follows.
What value of cytotoxicity at 10 μM has been reported for the following compound? COc1ccc(Br)cc1-c1oc2ccccc2c(=O)c1O
-2.1
